Assay: Plasma protein binding, equilibrium dialysis, human plasma
Assay type: in vitro ADME
Details: human plasma (10% for routine testing), 37° C., pH 7.4, 10% plasma (100% for low binders), read-out: % bound (human plasma) (converted)
Test Readout: fraction unbound at 5 μM

Recorded results for 2 compounds are shown here.
> print(dat)
                                   compound  measured.number
1  CC(C)NC(=O)CC(CC1(C(=O)N[C@H]2CCc3ccccc3N(CC(=O)O)C2=O)CCCC1)C(=O)O (stereo in doubt)             0.58
2  CC(C)N(C)C(=O)CC(CC1(C(=O)N[C@H]2CCc3ccccc3N(CC(=O)O)C2=O)CCCC1)C(=O)O (single isomer, unassigned)              0.6

(A) CCN(CCCN)C(=O)CC(CC1(C(=O)NC2CCc3ccccc3N(CC(=O)O)C2=O)CCCC1)C(=O)O (centres unmarked)
(B) CCN(CCCCN)C(=O)CC(CC1(C(=O)NC2CCc3ccccc3N(CC(=O)O)C2=O)CCCC1)C(=O)O (centres unmarked)
Which item exceeds the other in fraction unbound at 5 μM, A or B ? Record your answer as the label of the chosen record. A

====

Target: soluble, human recombinant NEP (Homo sapiens, UniProt P08473)
Construct: soluble, human recombinant NEP; Crine, University of Montreal, Canada
Sequence (P08473 52-750 limits assumed): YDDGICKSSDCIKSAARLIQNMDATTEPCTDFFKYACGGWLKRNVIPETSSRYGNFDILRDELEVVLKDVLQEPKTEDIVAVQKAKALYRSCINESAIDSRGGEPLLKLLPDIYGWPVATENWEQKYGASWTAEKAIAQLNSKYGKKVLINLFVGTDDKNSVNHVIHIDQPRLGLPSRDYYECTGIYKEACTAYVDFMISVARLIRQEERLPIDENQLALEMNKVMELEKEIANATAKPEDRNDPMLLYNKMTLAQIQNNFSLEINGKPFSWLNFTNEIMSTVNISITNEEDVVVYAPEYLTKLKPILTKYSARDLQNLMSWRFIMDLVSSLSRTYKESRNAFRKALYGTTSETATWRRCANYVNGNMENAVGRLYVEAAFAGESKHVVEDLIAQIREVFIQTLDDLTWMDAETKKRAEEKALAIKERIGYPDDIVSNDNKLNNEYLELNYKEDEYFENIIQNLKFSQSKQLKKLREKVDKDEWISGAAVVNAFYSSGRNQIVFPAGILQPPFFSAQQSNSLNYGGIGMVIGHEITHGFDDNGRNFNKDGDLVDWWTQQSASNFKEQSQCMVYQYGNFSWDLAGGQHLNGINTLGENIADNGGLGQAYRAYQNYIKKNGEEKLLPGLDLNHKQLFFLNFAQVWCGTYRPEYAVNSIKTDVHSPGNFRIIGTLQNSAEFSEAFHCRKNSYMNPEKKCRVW
Assay: In-vitro investigation of the NEP inhibitory action (fluorescence-quenched Big-ET-1 analogue, HPLC)
pIC50: −log10 of the molar value.
Test Readout: pIC50

See these solved cases before continuing.
> print(dat)
                                   compound                        measurement.target  measured.number
1  CC(C)N(C)C(=O)CC(CC1(C(=O)N[C@H]2CCc3ccccc3N(CC(=O)O)C2=O)CCCC1)C(=O)O (single isomer, unassigned) [Example 63]  soluble, human recombinant NEP (Homo sapiens, UniProt P08473)             8.05
2  O=C(O)CN1C(=O)[C@@H](NC(=O)C2(CC(CC(=O)NCC3CC3)C(=O)O)CCCC2)CCc2ccccc21 (mixture of isomers) [Example 23]  soluble, human recombinant NEP (Homo sapiens, UniProt P08473)             7.97

(P) COc1ccc(C(=O)CNC(=O)CC(CC2(C(=O)N[C@H]3CCc4ccccc4N(CC(=O)O)C3=O)CCCC2)C(=O)O)cc1 (mixture of isomers) [Example 20]
(Q) CCN(CCCCN)C(=O)CC(CC1(C(=O)NC2CCc3ccccc3N(CC(=O)O)C2=O)CCCC1)C(=O)O (stereo not shown) [Example 81]
Hey, which is lower on measured pIC50, P or Q ? Let me know the label of the one you choose. P
(P: 7.89, Q: 8.40)

====

Biological target: soluble, human recombinant NEP (Homo sapiens)
Construct: soluble, human recombinant NEP; Crine, University of Montreal, Canada
Assay: In-vitro investigation of the NEP inhibitory action (fluorescence-quenched Big-ET-1 analogue, HPLC)
Test Readout: IC50 (nM)

> print(dat)
                                   molecule  measured.number
1  CN(C)CCN(C)C(=O)CC(CC1(C(=O)NC2CCc3ccccc3N(CC(=O)O)C2=O)CCCC1)C(=O)O (stereo not shown)               12
2  CCN(CCCCN)C(=O)CC(CC1(C(=O)NC2CCc3ccccc3N(CC(=O)O)C2=O)CCCC1)C(=O)O (racemic) [Example 76]               10
3  COc1ccccc1CNC(=O)CC(CC1(C(=O)N[C@H]2CCc3ccccc3N(CC(=O)O)C2=O)CCCC1)C(=O)O (single isomer, unassigned)                4
4  CN(C)CCCN(C)C(=O)CC(CC1(C(=O)NC2CCc3ccccc3N(CC(=O)O)C2=O)CCCC1)C(=O)O (stereo not shown)                9
5  CCN(CCCN)C(=O)CC(CC1(C(=O)NC2CCc3ccccc3N(CC(=O)O)C2=O)CCCC1)C(=O)O (racemic) [Example 67]               15

(1) CCN(CCCN)C(=O)CC(CC1(C(=O)NC2CCc3ccccc3N(CC(=O)O)C2=O)CCCC1)C(=O)O (stereo not shown) [Example 80]
(2) COc1ccc(CNC(=O)CC(CC2(C(=O)N[C@H]3CCc4ccccc4N(CC(=O)O)C3=O)CCCC2)C(=O)O)cc1 (mixture of isomers)
(3) O=C(O)CN1C(=O)[C@@H](NC(=O)C2(CC(CC(=O)NCCCO)C(=O)O)CCCC2)CCc2ccccc21 (stereo in doubt)
(4) CN(CCO)C(=O)CC(CC1(C(=O)NC2CCc3ccccc3N(CC(=O)O)C2=O)CCCC1)C(=O)O (racemic)
Put the molecules in ascending order of IC50. Answer by naming the labels in the order asked. 4, 2, 1, 3
(4: 3.2 nM, 2: 11.1 nM, 1: 16 nM, 3: 37 nM)

(1) O=C(O)CN1C(=O)[C@@H](NC(=O)C2(CC(CC(=O)N3CCOCC3)C(=O)O)CCCC2)CCc2ccccc21 (single isomer, unassigned)
(2) O=C(O)CN1C(=O)[C@@H](NC(=O)C2(CC(CC(=O)NCc3ccccc3)C(=O)O)CCCC2)CCc2ccccc21 (mixture of isomers)
Compare 1 and 2 by numeric IC50 and name the larger one. Which one? Tell me its label. 1
(1: 18.2 nM, 2: 7.8 nM)

====

Test: Plasma protein binding, equilibrium dialysis, rat plasma
Type: in vitro ADME
Conditions: rat plasma (10% for routine testing), 37° C., pH 7.4, 10% plasma (100% for low binders), read-out: % bound (rat plasma) (converted)
Test Readout: fraction unbound at 5 μM

Study these solved cases before continuing.
> print(dat)
                                   molecule  measured.number
1  CCN(CCCN)C(=O)CC(CC1(C(=O)NC2CCc3ccccc3N(CC(=O)O)C2=O)CCCC1)C(=O)O (centres unmarked)             0.73
2  CC(C)NC(=O)CC(CC1(C(=O)N[C@H]2CCc3ccccc3N(CC(=O)O)C2=O)CCCC1)C(=O)O (stereo in doubt)             0.31
3  CCN(CCCCN)C(=O)CC(CC1(C(=O)NC2CCc3ccccc3N(CC(=O)O)C2=O)CCCC1)C(=O)O (centres unmarked)             0.36

(I) CC(C)N(C)C(=O)CC(CC1(C(=O)N[C@H]2CCc3ccccc3N(CC(=O)O)C2=O)CCCC1)C(=O)O (single isomer, unassigned)
(II) CN(C)CCCN(C)C(=O)CC(CC1(C(=O)NC2CCc3ccccc3N(CC(=O)O)C2=O)CCCC1)C(=O)O (centres unmarked)
// compare measured fraction unbound at 5 μM between I and II ; output the lower one Please indicate the selected item by its label. I
(I: 0.31, II: 0.83)

====

Target: His6-tagged hSEP ectodomain (Homo sapiens)
Sequence (Q495T6 49-779 limits assumed): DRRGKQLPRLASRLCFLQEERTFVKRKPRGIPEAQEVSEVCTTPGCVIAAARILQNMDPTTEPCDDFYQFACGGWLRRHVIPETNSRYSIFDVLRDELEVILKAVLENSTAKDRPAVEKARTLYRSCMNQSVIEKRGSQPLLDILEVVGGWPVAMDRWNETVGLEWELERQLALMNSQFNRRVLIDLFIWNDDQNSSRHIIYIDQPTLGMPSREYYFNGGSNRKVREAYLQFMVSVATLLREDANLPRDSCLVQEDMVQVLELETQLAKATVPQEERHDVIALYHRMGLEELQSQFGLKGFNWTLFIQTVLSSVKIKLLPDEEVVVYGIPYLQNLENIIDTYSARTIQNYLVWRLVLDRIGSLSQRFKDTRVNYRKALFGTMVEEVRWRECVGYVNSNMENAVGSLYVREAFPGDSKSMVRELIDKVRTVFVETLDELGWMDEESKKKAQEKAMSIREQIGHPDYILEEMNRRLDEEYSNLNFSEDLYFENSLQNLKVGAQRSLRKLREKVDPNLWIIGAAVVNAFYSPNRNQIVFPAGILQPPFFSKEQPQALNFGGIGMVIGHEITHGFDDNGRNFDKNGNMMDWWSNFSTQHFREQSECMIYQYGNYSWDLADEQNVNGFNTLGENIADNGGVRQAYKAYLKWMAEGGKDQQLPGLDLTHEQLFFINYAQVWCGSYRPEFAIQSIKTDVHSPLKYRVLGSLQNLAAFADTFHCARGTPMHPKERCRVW
pIC50: −log10 of the molar value.
Test Readout: pIC50

(a) CC(C)NC(=O)CC(CC1(C(=O)N[C@H]2CCc3ccccc3N(CC(=O)O)C2=O)CCCC1)C(=O)O (stereo partly drawn)
(b) COc1ccc(C(=O)CNC(=O)CC(CC2(C(=O)N[C@H]3CCc4ccccc4N(CC(=O)O)C3=O)CCCC2)C(=O)O)cc1 (mixture of isomers)
(c) CN(C)CCN(C)C(=O)CC(CC1(C(=O)NC2CCc3ccccc3N(CC(=O)O)C2=O)CCCC1)C(=O)O (stereo not drawn)
(d) CCN(CCCCN)C(=O)CC(CC1(C(=O)NC2CCc3ccccc3N(CC(=O)O)C2=O)CCCC1)C(=O)O (stereo not drawn)
(e) O=C(O)CN1C(=O)[C@@H](NC(=O)C2(CC(CC(=O)N3CCOCC3)C(=O)O)CCCC2)CCc2ccccc21 (single isomer, unassigned)
# descending pIC50 order for the listed compounds Enter labels, ranked according to the request. d, c, e, a, b
